Some binders, each annotated with its measured ELISA OD.
- study_system: T1, 15-mer peptide LGIWGCSGKLICTTT (SEQ ID NO:1) (HIV, not fully specified; cysteine pairing not given here)
- T1 construct: also called U1731DB060-1; U173DB060-1
- T1 peptide: LGIWGCSGKLICTTT
- assay_info: indirect ELISA; 15-mer peptide coated 1 ug/ml in DTT; antibody at 1000 ng/ml
No end group written: not given here.
The reply should be a number in OD, with the unit left off.

Solved cases below.
binder="HIV-binding peptide #5 (antibody, human IgG1, kappa, V domains shown, Recombinant, fully human immunoglobulin; also called U1205DB020-5) VH: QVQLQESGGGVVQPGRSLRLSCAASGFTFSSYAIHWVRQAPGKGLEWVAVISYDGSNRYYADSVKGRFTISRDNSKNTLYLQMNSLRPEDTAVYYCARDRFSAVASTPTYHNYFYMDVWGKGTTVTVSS VL: DIQMTQSPSSLSASVGDRVTITCQASQDVSNYLAWYQQKPGQAPRLLIYDASNLETGVPSRFSGSGSGTDFTLTISSLQPEDLATYYCQQYDNTPYTFGQGTKLEIKR" measurement_label="ELISA OD" reading=0.081
binder="HIV-binding peptide #10Q (antibody, V domains shown, also called antibody#10-5Q; U1205DB020-10) VH: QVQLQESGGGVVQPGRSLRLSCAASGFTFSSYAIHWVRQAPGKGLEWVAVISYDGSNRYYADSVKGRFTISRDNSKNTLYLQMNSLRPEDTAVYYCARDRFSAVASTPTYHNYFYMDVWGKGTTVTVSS" measurement_label="ELISA OD" reading=1.71
binder="HIV-binding peptide #6 (antibody, human IgG1, kappa, V domains shown, Recombinant, fully human immunoglobulin; also called U1205DB020-6) VH: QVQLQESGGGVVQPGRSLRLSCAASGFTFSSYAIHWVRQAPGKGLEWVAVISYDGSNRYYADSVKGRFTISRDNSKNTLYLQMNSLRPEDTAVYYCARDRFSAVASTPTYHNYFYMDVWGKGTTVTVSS VL: DIQMTQSPSSLSASVGDRVTITCQASQDISNYLAWYQQKPGQAPRLLIYDASNLETGVPSRFSGSGSGTDFTLTISSLQPEDLATYYCQQYDNTPYTFGQGTKLEIKR" measurement_label="ELISA OD" reading=0.079
binder="HIV-binding peptide #9Q (antibody, human IgG1, V domains shown) VH: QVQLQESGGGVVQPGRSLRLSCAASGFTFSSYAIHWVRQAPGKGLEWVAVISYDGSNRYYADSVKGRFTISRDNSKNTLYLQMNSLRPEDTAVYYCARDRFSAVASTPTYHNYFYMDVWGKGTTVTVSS" measurement_label="ELISA OD" reading=0.745
binder="HIV-binding peptide #7 (antibody, human IgG1, kappa, V domains shown, also called U1205DB020-7) VH: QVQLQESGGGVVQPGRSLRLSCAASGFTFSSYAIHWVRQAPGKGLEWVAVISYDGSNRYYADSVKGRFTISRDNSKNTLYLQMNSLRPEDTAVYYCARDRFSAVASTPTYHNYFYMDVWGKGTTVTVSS VL: DIQMTQSPSSLSASVGDRVTITCQASQDVSNYLAWYQQKPGQAPRLLIYDASNLETGVPSRFSGSGSGTDFTLTISSLQPEDLATYYCQQYDNLPYTFGQGTKLEIKR" measurement_label="ELISA OD" reading=0.09

Note: attention shifts to another entry.
Request: Entry HIV-binding peptide #1 (antibody, human IgG1, kappa, V domains shown, Recombinant, fully human immunoglobulin; also called U1205DB020-1) VH: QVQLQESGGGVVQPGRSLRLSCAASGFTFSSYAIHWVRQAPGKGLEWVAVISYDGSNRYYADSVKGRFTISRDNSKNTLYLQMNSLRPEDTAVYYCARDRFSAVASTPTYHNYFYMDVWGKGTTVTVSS VL: DIQMTQSPSSLSASVGDRVTITCQASQDVNNYLAWYQQKPGQAPRLLIYDASNLETGVPSRFSGSGSGTDFTLTISSLQPEDLATYYCQQYDNTPYTFGQGTKLEIKR has what ELISA OD?
Result: 0.079
